# tgt: Plasmodium falciparum calcium-dependent protein kinase 1 (CDPK1) (Plasmodium falciparum, UniProt P62344)
# Construct: 6-Histidine (N); made in house
# Sequence (P62344 whole entry): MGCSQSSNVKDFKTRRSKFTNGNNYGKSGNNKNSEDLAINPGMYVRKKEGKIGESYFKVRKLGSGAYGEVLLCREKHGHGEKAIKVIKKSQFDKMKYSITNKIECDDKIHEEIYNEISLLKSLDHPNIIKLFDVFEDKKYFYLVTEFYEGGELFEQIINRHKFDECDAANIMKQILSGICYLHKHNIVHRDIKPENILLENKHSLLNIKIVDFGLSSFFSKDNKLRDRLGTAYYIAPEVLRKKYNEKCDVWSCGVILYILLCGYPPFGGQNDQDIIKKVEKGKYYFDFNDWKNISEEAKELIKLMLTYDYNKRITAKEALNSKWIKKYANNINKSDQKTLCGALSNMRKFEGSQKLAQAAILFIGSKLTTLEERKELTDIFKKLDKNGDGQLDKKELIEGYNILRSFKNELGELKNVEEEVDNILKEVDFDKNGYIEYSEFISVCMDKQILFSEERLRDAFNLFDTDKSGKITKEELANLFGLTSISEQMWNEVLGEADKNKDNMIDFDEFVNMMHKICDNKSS
# experiment_description: CDPK1 Kinase-Glo ATP-consumption screen and dose-response
# Type: biochemical
# cond: hits below 1 uM; read-out: CDPK1 IC50
pIC50: −log10 of the molar value.
measured_attribute: pIC50

Some entries whose results are on file:
COc1cccc(Nc2nccc(-c3c(-c4cccc(NC(=O)c5c(F)cccc5F)c4)nn4ccccc34)n2)c1 [TCMDC-135508]; 7.06
CNC(=O)c1ccccc1Nc1nc(Nc2cccc(CS(C)(=O)=O)c2)ncc1C.O=CO [TCMDC-133809]; 6.84

A: CS(=O)(=O)Cc1ccc(Nc2nccc(N3CCCc4cc(NC(=O)Nc5cccc(C(F)(F)F)c5)ccc43)n2)cc1 [TCMDC-134309]
B: CCn1c(-c2nc(-c3ccnc(N4CCN(C)CC4)c3)cnc2N)nc2cc(S(C)(=O)=O)ccc21 [TCMDC-134155]
Lab note: check whether A or B has the lower measured pIC50. Mark your selection by writing its label. B
